Entries and their IC50 values follow.
Target: wild-type BTK (Homo sapiens (Human), UniProt Q06187)
Sequence (Q06187 whole entry): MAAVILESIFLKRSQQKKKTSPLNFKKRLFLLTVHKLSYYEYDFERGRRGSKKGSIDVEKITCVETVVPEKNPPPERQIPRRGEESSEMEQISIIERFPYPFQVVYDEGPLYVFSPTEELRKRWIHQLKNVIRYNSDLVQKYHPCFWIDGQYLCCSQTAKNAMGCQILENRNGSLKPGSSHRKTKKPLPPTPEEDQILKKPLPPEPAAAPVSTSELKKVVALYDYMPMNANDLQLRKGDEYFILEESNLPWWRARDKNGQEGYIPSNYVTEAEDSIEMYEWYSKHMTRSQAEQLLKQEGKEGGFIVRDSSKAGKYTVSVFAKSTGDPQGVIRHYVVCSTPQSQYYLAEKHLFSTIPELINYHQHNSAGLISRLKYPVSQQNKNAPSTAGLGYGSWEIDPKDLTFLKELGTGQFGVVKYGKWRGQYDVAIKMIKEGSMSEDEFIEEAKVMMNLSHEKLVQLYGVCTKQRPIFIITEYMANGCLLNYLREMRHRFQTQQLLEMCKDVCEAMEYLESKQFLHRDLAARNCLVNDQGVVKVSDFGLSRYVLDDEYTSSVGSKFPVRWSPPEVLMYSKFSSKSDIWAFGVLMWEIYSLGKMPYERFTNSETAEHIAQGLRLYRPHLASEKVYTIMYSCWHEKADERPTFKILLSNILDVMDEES
Experiment: In vitro kinase activity assay for BTK (Nanosyn)
Assay type: biochemical
Settings: 0.6 nM BTK, 5 μM ATP

- MOLECULAR_STRING: "C=C(CN1CCCCC1)C(=O)N1CCC[C@@H](n2nc(-c3ccc(Oc4ccccc4)cc3)c3c(N)ncnc32)C1"
  IC50 (nM): 0.1
- MOLECULAR_STRING: "C=C(COC(C)=O)C(=O)N1CCC[C@@H](n2nc(-c3ccc(Oc4ccccc4)cc3)c3c(N)ncnc32)C1"
  IC50 (nM): 0.1
- MOLECULAR_STRING: "C=C(CN(C)c1ccccc1)C(=O)N1CCC[C@@H](n2nc(-c3ccc(Oc4ccccc4)cc3)c3c(N)ncnc32)C1"
  IC50 (nM): 5.6
- MOLECULAR_STRING: "C=C(CNCc1ccccc1)C(=O)N1CCC[C@@H](n2nc(-c3ccc(Oc4ccccc4)cc3)c3c(N)ncnc32)C1"
  IC50 (nM): 0.1
